Across several publications, the following pKi results were reported for UniProtKB P51681.
pKi: −log10 of the molar value.
experimental_endpoint: pKi

# annotated cases, reported pKi shown
>  <cpd_smiles>
CO/N=C(/c1ccc(Br)cc1)C1CCN(C2(C)CCN(C(=O)c3c(C)ccnc3C)CC2)CC1

>  <measured_result>
8.96

$$$$
>  <cpd_smiles>
CCO/N=C(/c1ccc(Br)cc1)C1CCN(C2(C)CCN(C(=O)c3c(C)nc(C(F)(F)F)nc3C)CC2)CC1

>  <measured_result>
8.49

$$$$
>  <cpd_smiles>
CCO/N=C(\c1ccc(Br)cc1)C1CCN(C2(C)CCN(C(=O)c3c(C)cncc3C)CC2)CC1

>  <measured_result>
8.64

$$$$
>  <cpd_smiles>
CCO/N=C(/c1ccc(Br)cc1)C1CCN(C2(C)CCN(C(=O)c3c(C)cncc3C)CC2)CC1

>  <measured_result>
8.64

$$$$
>  <cpd_smiles>
CCO/N=C(\c1ccc(Br)cc1)C1CCN(C2(C)CCN(C(=O)c3c(Cl)c[n+]([O-])cc3Cl)CC2)CC1

>  <measured_result>
8.92

$$$$
>  <cpd_smiles>
C[C@H]1CN(C2(C)CCN(C(=O)c3c(N)cccc3Cl)CC2)CCN1[C@@H](C)c1ccc(I)cc1

>  <measured_result>
7.92

$$$$
>  <cpd_smiles>
Cc1cccc(C)c1C(=O)N1CCC(C)(N2CCC(/C(=N\OC(C)(C)C)c3ccc(Br)cc3)CC2)CC1

>  <measured_result>
8.05

$$$$
>  <cpd_smiles>
Cc1cccc(C)c1C(=O)N1CCC(C)(N2CCN([C@@H](C)c3ccc(C(F)(F)F)cc3)[C@@H](C)C2)CC1

>  <measured_result>
9.00

$$$$

A = Cc1cccc(C)c1C(=O)N1CCC(C)(N2CCC(Cc3ccc(-c4ccccc4)cc3)CC2)CC1
B = CO/N=C(\c1ccc(Br)cc1)C1CCN(C2(C)CCN(C(=O)c3c(C)cccc3N)CC2)CC1
// query For this pair, A and B , which shows a numerically higher pKi? To answer, give the label that identifies your chosen option.
// result B

A = CCO/N=C(/c1ccc(Br)cc1)C1CCN(C2(C)CCN(C(=O)c3c(C)cc(-c4ccncc4)cc3C)CC2)CC1
B = Cc1ncnc(C)c1C(=O)N1CCC(C)(N2CCN([C@@H](C)c3ccc(I)cc3)[C@@H](C)C2)CC1
C = CO/N=C(\c1ccc(Br)cc1)C1CCN(C2(C)CCN(C(=O)c3c(C)cc[n+]([O-])c3C)CC2)CC1
D = CCO/N=C(/c1ccc(Br)cc1)C1CCN(C2(C)CCN(C(=O)c3c(C)nc(C)nc3C)CC2)CC1
E = CO[C@@H]1COCC[C@@H]1NC1CCN(C(=O)c2nc(C(F)(F)F)nc(N3CCc4cc(C(F)(F)F)ccc4C3)c2C)CC1
// query List items by pKi in falling order. Give the labels in the order requested.
// result A, D, B, C, E
(A: 10.00, D: 8.68, B: 7.96, C: 7.74, E: 6.82)
